// reported Soluble 60-mer huBAFF (4 pM) Neutralization IC50 per item
biological target: Recombinant soluble 60-mer human BAFF (His-HuBAFF 134-285) (human, UniProt Q9Y275 134-285); experiment: cell-based or functional assay
A number alone suffices; assume pM.

Completed entries (count: 5):
| binder | quantityUnit | reportedValue |
| --- | --- | --- |
| 363D4A10 (antibody, V domains shown) VH: QVTLKESGPGILQSSQTLSLTCSFSGFSLKTFGMGVGWIRQPSGKGLEWLAHIWWNDDKFYHPALKSRLTISKDTSKNQVFLKIANVDTAETATYYCVRIGPSITTVAEGFAYWGQGTLVTVSA VL: DIVMTQSQKFMSTTVGDRVTITCKASQNVGSAVVWYQQKPGQSPILLIFSASNRYTGVPDRITGSGSGAEFTLTISSVQSEDLAEYFCQQYSSYPLTFGAGTKLELK | pM | 9 |
| 332C1B12 (antibody, V domains shown) VH: QVQLQQPGAELVKPGASVKLSCKASGYTFTNDNYWMNWMKQRPGRGLEWIGRIRPSDSETHYNQKFTNKATLTVDKSSSTAYIQLSSLTSVDSAVYYCARSWEDLLLRSMEDYFDYWGQGTTLTVSS VL: DIVLTQSPASLPVSLGQRATISCRASKGVSTSSYTFIHWYQQKPGQPPKLLIKYASNLESGVPARFSGSGSGTDFTLNIHPVEEEDVATYYCQHSREFPRTFGGGTKLEIK | pM | 12 |
| 537G7A6 (antibody, V domains shown) VH: QVQLKESGPGLVAPSQSLSITCTVSGFSLSRYSVHWIRQSPGKGLEWLGMIWGGGNTDYNSGLKSRLSISKDNSKSQVFLKMNSLENDDTAMYYCASPSLYYYDVAWFPYWGQGTLVTVSA VL: DIVLTQSPASLAVSVGQRATVSCRVSESVDRYADSFMHWYQQKPGQPPKLLIYLASNLESGVPARFSGSGSRTDFTLTIDPVEADDAATYYCQQNKEDPYTFGGGTKLELK | pM | 13 |
| 344B9D9 (antibody, V domains shown) VH: EFQLQQSGPELGEPGASVKISCKASGFSFSDYNINWVKQSNGKSLEWIGKVHPKDGTATYNQKFQDKATLTLDQSSSTAYMQLSSLTSEDSAVYYCLPLYYDSLTKILFAYWGQGTLVTVSA VL: DIQMTQSPASLSASVGETVTITCRASGNIHNYLAWYQQKQGKSPQLLVYSAITLADGVPSRFSGSGSETQFSLKINSLQPEDFGIYYCQHFWNTPYTFGGGTKLEIK | pM | 11 |
| 352G11A10 (antibody, V domains shown) VH: QVQLQQSGPELVKPGGSVRISCKASGYSLISYYIHWVKQRPGQGLEWIGLTFPGSGNSKFIEKFKGKATLTADTSSNTAYIQLSSLTSEDSAVYYCTRGDFGNYLAYWYFDVWGTGTTVTVSS VL: DIKMTQSPSSIYASLGERVTITCKASQDIHSYLSWFQQKPGKSPKTLMYRTNRLVDGVPSRFSGSGSGQDYSLTIRSLEYEDMGNYYCLQYDEFPYTFGGGAKLEVK | pM | 21 |

Next up:
QUERY: Look up Soluble 60-mer huBAFF (4 pM) Neutralization IC50 of Reference 1 (antibody, human IgG4 S228P, kappa, V domains shown, Comparator anti-BAFF antibody) VH: QVQLQQWGAGLLKPSETLSLTCAVYGGSFSGYYWSWIRQPPGKGLEWIGEINHSGSTNYNPSLKSRVTISVDTSKNQFSLKLSSVTAADTAVYYCARGYYDILTGYYYYFDYWGQGTLVTVSS VL: EIVLTQSPATLSLSPGERATLSCRASQSVSRYLAWYQQKPGQAPRLLIYDASNRATGIPARFSGSGSGTDSTLTISSLEPEDFAVYYCQQRSNWPRTFGQGTKVEIKR and report it.
RESULT: 40
